Test system: Pancreatin
Test: Protease stability in simulated intestinal fluid (Pancreatin-SIF, FaSSIF)
Type: in vitro ADME
Conditions: 240 min, 1 μM peptide, 37° C., read-out: FaSSIF 240 (min), remaining percent of peptide
Protocol: Studies were carried out in simulated intestinal fluid (SIF) and simulated gastric fluid (SGF) to evaluate gastric stability of the peptide compounds disclosed herein. […] To 76 μL of the Pepsin-SGF buffer, 4 μL of the 20 µM peptide stock solution was added and incubated at 37° C. […] The samples were centrifuged for 20 minutes and an aliquot of the supernatant 100 μL were transferred to a LoBind-MTP plate and analyzed by LCMS/MS. […]
Starred links: 1 amine or outer side, 2 acyl side, 3 side chain; linkers in the order of their positions; H or OH if unused. Positions of bridges follow the written chain, without caps; N, C: chain ends. Non-standard residues stand in square brackets, D forms with d. Residues, ends and D or L forms follow the SMILES beside them. *: point of attachment. X5 = CN(C(=O)CCC(=O)[*:3])[C@@H](CS[*:2])C(=O)[*:1]; Trp(7-Me) = Cc1cccc2c(C[C@H](N)C(=O)O)c[nH]c12; X1 = O=C(CCCCN[*:3])N[C@@H](CS[*:2])C(=O)[*:1]; 2Nal = N[C@@H](Cc1ccc2ccccc2c1)C(=O)O; 3Pal = N[C@@H](Cc1cccnc1)C(=O)O; Lys(Me) = CNCCCC[C@H](N)C(=O)O; NMeN = CN[C@@H](CC(N)=O)C(=O)O; αMeL = CC(C)C[C@](C)(N)C(=O)O; Thp = NC1(C(=O)O)CCOCC1; Me2NCH2CH2 = CN(C)CC*; Aib = CC(C)(N)C(=O)O; Ahx = NCCCCCC(=O)O; Ava = NCCCCC(=O)O; Sar = CNCC(=O)O
Answer each item with its documented remaining at 4 h, 1 µM.
Numbers only, in %.

* CC(=O)N[C@H]1CCCCNC(=O)[C@@H]2CSSC[C@H](NC(=O)[C@H](CC(C)C)NC(=O)[C@H](Cc3c[nH]c4c(C)cccc34)NC1=O)C(=O)N[C@@H](Cc1ccc(OCCN(C)C)cc1)C(=O)N[C@@H](Cc1ccc3ccccc3c1)C(=O)N[C@@](C)(CC(C)C)C(=O)N[C@H](C(=O)N[C@@H](CC(N)=O)C(=O)N[C@@H](Cc1cccnc1)C(=O)N(C)CC(N)=O)CCCCN(C)C(=O)CCC(=O)N2C [compound 69] (Ac-K[Trp(7-Me)]LCY(Me2NCH2CH2)[2Nal][αMeL][Lys(Me)]N[3Pal][Sar]-NH2; linker 1-4-8 via X5) | 83
* COc1ccc(C[C@@H]2NC(=O)[C@@H]3CSSC[C@H](NC(=O)CCCCCNC(=O)C[C@@H](C(=O)N[C@@H](CC(N)=O)C(=O)N[C@@H](CC(N)=O)C(N)=O)NC(=O)C(C)(C)NC(=O)[C@H](Cc4ccc5ccccc5c4)NC2=O)C(=O)N(C)[C@@H](CC(N)=O)C(=O)N[C@@H]([C@@H](C)O)C(=O)N[C@@H](Cc2c[nH]c4ccccc24)C(=O)N[C@@H](CCC(N)=O)C(=O)N3)cc1 [compound 6] ([Ahx]C[NMeN]TWQCY(Me)[2Nal][Aib]DNN-NH2; disulfide 2-7; lactam N-11) | 51
* CC(C)C[C@@H](NC(=O)[C@H](CC(N)=O)NC(=O)[C@@H]1CCC(=O)NCCCCC(=O)N[C@H]2CSSC[C@H](NC(=O)[C@H](CCC(N)=O)NC(=O)[C@H](Cc3c[nH]c4ccccc34)NC(=O)[C@H]([C@@H](C)O)NC(=O)[C@H](CC(N)=O)NC2=O)C(=O)N[C@@H](Cc2ccc(OCCN(C)C)cc2)C(=O)N[C@@H](Cc2ccc3ccccc3c2)C(=O)N[C@@](C)(CC(C)C)C(=O)N1)C(N)=O [compound 10] ([Ava]CNTWQCY(Me2NCH2CH2)[2Nal][αMeL]EN[dL]-NH2; disulfide 2-7; lactam N-11) | 80

Provide each entry's remaining at 4 h, 1 µM from the list below.
1. CC(=O)N[C@H]1CCCCNC(=O)[C@@H]2CSSC[C@H](NC(=O)[C@H](CCC(N)=O)NC(=O)[C@H](Cc3c[nH]c4ccccc34)NC1=O)C(=O)N[C@@H](Cc1ccc(OCCN(C)C)cc1)C(=O)N[C@@H](Cc1ccc3ccccc3c1)C(=O)NC1(CCOCC1)C(=O)N[C@H](C(=O)N[C@@H](CC(N)=O)C(=O)NCC(N)=O)CCC(=O)NCCCCC(=O)N2 [compound 30] (Ac-KWQCY(Me2NCH2CH2)[2Nal][Thp]ENG-NH2; linker 1-4-8 via X1)
2. COc1ccc(C[C@@H]2NC(=O)[C@@H]3CSSC[C@H](NC(=O)[C@@H](NC(C)=O)CCCCNC(=O)C[C@@H](C(=O)N[C@@H](CC(N)=O)C(=O)N[C@@H](CC(N)=O)C(N)=O)NC(=O)C(C)(C)NC(=O)[C@H](Cc4ccc5ccccc5c4)NC2=O)C(=O)N[C@@H](CC(N)=O)C(=O)N[C@@H]([C@@H](C)O)C(=O)N[C@@H](Cc2c[nH]c4ccccc24)C(=O)N[C@@H](CCC(N)=O)C(=O)N3)cc1 [compound 7] (Ac-KCNTWQCY(Me)[2Nal][Aib]DNN-NH2; lactam 1-11; disulfide 2-7)

Reply:
[83, 47]
